# maps each entry to its Normal melting temperature
- CONDITIONS_USED: Crystal; DTA

COMPOUND	Normal melting temperature (°C)
Nc1ccc(S(=O)(=O)Nc2cc(Cl)c(Cl)cc2Cl)cc1 [4-amino-N-(2,4,5-trichlorophenyl)benzenesulfonamide]	188.1
CCOC(=O)c1ccc(NS(=O)(=O)c2ccccc2)nc1 [ethyl 6-(phenylsulfonamido)nicotinate]	154.8
O=[N+]([O-])c1ccccc1NS(=O)(=O)c1ccccc1 [N-(2-nitrophenyl)benzenesulfonamide]	98.7
CNS(=O)(=O)c1ccc(N)cc1 [4-amino-N-methylbenzenesulfonamide]	109.1
O=S(=O)(Nc1ccccc1)c1ccccc1 [N-phenylbenzenesulfonamide]	110.4
CCN(CC)S(=O)(=O)c1ccc(N)cc1 [4-amino-N,N-diethylbenzenesulfonamide]	105.7
Cc1cc(N)ccc1S(=O)(=O)Nc1ccccc1Cl [4-amino-N-(2-chlorophenyl)-2-methylbenzenesulfonamide]	206.4
O=[N+]([O-])c1ccc(S(=O)(=O)Nc2nccs2)cc1 [4-nitro-N-2-thiazolylbenzenesulfonamide]	256.6
Cc1cc(N)ccc1S(=O)(=O)Nc1ccc(Cl)cc1 [4-amino-N-(4-chlorophenyl)-2-methylbenzenesulfonamide]	173.4
O=S(=O)(Nc1ccc(Cl)cc1)c1ccccc1 [N-(4-chlorophenyl)benzenesulfonamide]	121.5
CCc1ccc(NS(=O)(=O)c2ccc(N)cc2)cc1 [4-amino-N-(4-ethylphenyl)benzenesulfonamide]	163.1
COc1ccc(NS(=O)(=O)c2ccc(N)cc2)cc1 [4-amino-N-(4-methoxyphenyl)benzenesulfonamide]	194.2
Nc1ccc(S(=O)(=O)Nc2ccc([N+](=O)[O-])cc2Br)cc1 [4-amino-N-(2-bromo-4-nitrophenyl)benzenesulfonamide]	188
O=S(=O)(Nc1ncccc1Cl)c1ccccc1 [N-(3-chloro-2-pyridinyl)benzenesulfonamide]	131.0
Cc1ccc(NS(=O)(=O)c2ccc(N)cc2)c(Cl)c1 [4-amino-N-(2-chloro-4-methylphenyl)benzenesulfonamide]	155.7
